- Assay overview: in vivo
- Experimental parameters: male, iv, 150 mg
Parameter measured: half-life
Record the result as a number with its unit.

Exercise: May I ask what half-life has been recorded for CC(=O)NC[C@H]1CN(c2ccc(N3CCOCC3)c(F)c2)C(=O)O1 [Linezolid, reference compound] ?
Solution: 4.5 h

Exercise: Same question for [2H]C([2H])(NC(C)=O)[C@H]1CN(c2ccc(N3C([2H])([2H])C([2H])([2H])OC([2H])([2H])C3([2H])[2H])c(F)c2)C(=O)O1 please.
Solution: 6.2 h

---

- Assay overview: in vivo
- Experimental parameters: female, iv, 150 mg
Parameter measured: half-life (h)
Provide the reading as a plain figure in h.

[2H]C([2H])(NC(C)=O)[C@H]1CN(c2ccc(N3C([2H])([2H])C([2H])([2H])OC([2H])([2H])C3([2H])[2H])c(F)c2)C(=O)O1    6.4

Turning now to a further compound:
Exercise: Reported half-life, compound CC(=O)NC[C@H]1CN(c2ccc(N3CCOCC3)c(F)c2)C(=O)O1 [Linezolid, reference compound] : ____
Solution: 4.5

---

- Assay overview: in vivo
- Experimental parameters: male, Sprague Dawley, rat, po, 5 mg/kg
Parameter measured: Tmax (min)
Write the answer as a number in min, unit excluded.

Exercise: Reported Tmax for CC(=O)NC[C@H]1CN(c2ccc(N3CCOCC3)c(F)c2)C(=O)O1 [Linezolid, reference compound] : what is it?
Solution: 49.8

---

- System: mtDNA-encoded protein synthesis in HepG2 cells
- Assay overview: Mitochondria Toxicity Study (Complex IV/Frataxin ratio, dipstick)
- Experimental parameters: Homo sapiens, HepG2
Here, each record is paired with measured IC50 data.
Express the result in µM but write the number alone.

The cases that follow already have their IC50 on record.
[2H]C1([2H])CN(c2ccc(N3C[C@H](CNC(C)=O)OC3=O)cc2F)CC([2H])([2H])O1 [Compound 103]    9.7
CC(=O)NC[C@H]1CN(c2ccc(N3CCOCC3)c(F)c2)C(=O)O1 [Linezolid, reference compound]    7.8
[2H]C([2H])(NC(C)=O)[C@H]1CN(c2ccc(N3C([2H])([2H])C([2H])([2H])OC([2H])([2H])C3([2H])[2H])c(F)c2)C(=O)O1 [Compound 100]    9.3

Attention now turns to another entry.
Exercise: Param readout = IC50; param system = mtDNA-encoded protein synthesis in HepG2 cells; param query = [2H]C1([2H])OC([2H])([2H])C([2H])([2H])N(c2ccc(N3C[C@H](CNC(C)=O)OC3=O)cc2F)C1([2H])[2H] [Compound 101] ; response: value
Solution: 10.5
